- STUDY SYSTEM: T1, MDM2_(D.rerio) SWIB domain (Danio rerio (zebrafish))
- T1 chain: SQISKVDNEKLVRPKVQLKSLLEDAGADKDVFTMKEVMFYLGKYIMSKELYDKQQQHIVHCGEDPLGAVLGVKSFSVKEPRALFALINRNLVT
- ASSAY PROCEDURE: FP
- CONDITIONS: modification not given
pKd: −log10 of the molar value.

{"columns": ["BINDER", "pKd"],
 "data": [
  ["GGSCWDIINDEEYLP [p53TAD_(D.rerio)^35-49]", "< 3.70"],
  ["DSQEFAELWEKN [p53TAD_(D.rerio)^14-26]", "< 3.70"],
  ["PGSFDPNFFENVLEE [p53TAD_(D.rerio)^49-63]", 3.68],
  ["IINDEEYLPGSFDPN [p53TAD_(D.rerio)^41-55]", "< 3.70"],
  ["IQPPGGGSCWDIIND [p53TAD_(D.rerio)^30-44]", "< 3.70"],
  ["QNDSQEFAELWEKNLISIQPPGGGSCWDIINDEEYLPGSFDPN [p53TAD_(D.rerio)^12-55]", 7.48],
  ["ELWEKNLISIQPPGG [p53TAD_(D.rerio)^21-35]", "< 3.70"]
]}
